Answer each item with its documented Percent Effect.
- subject-of-test: AMP-activated protein kinase, AMPK (Homo sapiens) (UniProt P54646+O43741+P54619+Q9UGJ0+Q9Y478+Q13131+Q9UGI9)
- assay-protocol: AMP-dependent Kinase enzyme assay. An in vitro enzyme assay that detects ADP turnover that is directly proportional to AMPK activity. This uses naive AMPK that is activated during the assay with MK-8722
- Format: functional
- Parameters: scale not given: direction of the effect not stated beside the values
- condition-label: 30 µM
Give bare numbers, in %.

// known answers, use as guide
| compound | units | Percent Effect |
| --- | --- | --- |
| COc1cccc(CC(=O)N2CCc3ncnc(NCCO)c3CC2)c1 | % | -1.01 |
| Cc1cncc(C2CCN(Cc3ccncc3)CC2)n1 | % | 7.85 |
| Cn1ccc(N2CCCC(NC(=O)c3ccsc3)C2=O)n1 (stereo not drawn) | % | -4.2 |
| CN(C)CCC1CCN(c2cc(N3CCCC3CO)ncn2)CC1 (stereo not drawn) | % | -6.25 |
| CC1CN(C)CCN1C(=O)c1cccn1Cc1ccncc1 (stereo not drawn) | % | 1.97 |
| O=C(CCCn1cccn1)N1CCCC(n2cncn2)C1 (stereo not drawn) | % | 5.88 |
| CC(=O)NCCCNC(=O)N1CCN(c2cc(F)ccc2F)CC1 | % | 6.39 |
| Cn1cccc1CN(C(=O)CC(CC(=O)O)c1cccs1)C1CC1 (stereo not drawn) | % | -2.3 |

Would you mind giving Percent Effect for every compound in the list below?
1. O=C(Nc1ccccc1F)NC1(CO)CCOCC1
2. NC(=O)c1ccc(NC(=O)N2CCN(c3cccs3)CC2)c(F)c1
3. NS(=O)(=O)c1ccc(NCc2ccco2)c2ncccc12
4. Cn1ccnc1C1(O)CCN(C(=O)CCc2ccccc2)CC1
5. Cc1ccc(-c2noc(Cn3nc(C(N)=O)ccc3=O)n2)cc1
6. CN(Cc1ccc(C#N)cc1)C(=O)c1ccn(C)c(=O)c1

1. -1.57
2. 2.09
3. -2.08
4. 8.55
5. 5.62
6. 5.01

Give Percent Effect for each of the items listed below.
1. O=C(O)c1ccn(-c2ccc(NC(=O)c3ccccc3Cl)cc2)n1
2. O=C(O)C1(O)CCN(c2ccc3cccc(Cl)c3n2)CC1
3. CCCc1nc(C(=O)N2CCn3nc(C(=O)OC)cc3C2)cs1

5.04
13.6
1.42

Parameter requested: Percent Effect. Apply to each item below.
1. Cc1cc(COC(=O)[C@@H]2Cc3ccccc3CN2S(C)(=O)=O)no1
2. CN(Cc1nc(C2CC2)no1)C1CCS(=O)(=O)C1 (stereo not drawn)
3. CN(CC(O)C(F)(F)F)C(=O)Nc1cccc(Cn2cccn2)c1 (stereo not drawn)
4. CC(c1ncc(-c2ccccc2)o1)N1CCN(C(=O)N(C)C)CC1 (stereo not drawn)
5. CCn1cc(NC(=O)NCCN2CCCCCC2=O)cn1
6. Cc1nc(C)n(CCC(=O)NCC2CCCOC2)n1 (stereo not drawn)
7. Cc1cc(C(=O)NCCN2CCCC(C)C2)nn1C(C)(C)C (stereo not drawn)

1: 27.9; 2: 2.02; 3: -3.22; 4: -7.85; 5: 87.7; 6: 10.8; 7: -4.71

Would you be so kind as to report Percent Effect for each listed record?
1. Cc1ccccc1[C@@H]1CN(CCOCCO)C[C@H]1C(=O)O
2. Cc1ccc(C2(O)CCN(C(=O)CCn3ccc(=O)[nH]c3=O)CC2)nc1
3. CCc1nnc(NC(=O)c2c3c(nn2C2CCS(=O)(=O)C2)CCC3)s1 (stereo not drawn)
4. Cc1cccc(C)c1Oc1ncccc1CNC(=O)C1COC(=O)N1 (stereo not drawn)
5. CCCC(=O)Nc1cnn(CC(=O)Nc2ccc(SC)cc2)c1
6. CC1CCCCN1C(=O)COc1nc(Cc2ccc(F)cc2)no1 (stereo not drawn)
7. O=C(c1ccc(Cl)s1)N1CCCn2nc(CN3CC[C@H](F)C3)cc2C1

[-1.24, 1.66, -8.02, -10.7, -33.2, 2.51, 3.24]

====

- subject-of-test: Arginase-2, mitochondrial (Homo sapiens) (UniProt P78540)
- assay-protocol: in vitro enzyme assay to detect the production of urea directly proportional to the activity of Arginase II; note: in the data most compounds retested in dose-response had high values
- Format: functional
- Parameters: scale not given: direction of the effect not stated beside the values
- condition-label: 30 µM
measured-property: Percent Effect (%)
Give bare numbers, in %.

| compound | Percent Effect [%] |
| --- | --- |
| CN(Cc1ccco1)[C@@H]1CN(CC2CCOCC2)C[C@@H]2CCCO[C@@H]21 | 7.03 |
| CCn1c(NCc2ccccn2)nc2c(C)nn(C)c2c1=O | -5.95 |
| Cc1nc(NCC2CC2)nc2c1COCC21CCN(S(=O)(=O)C2CC2)C1 (stereo unspecified) | 7.03 |

Provide the reported Percent Effect of each entry below, same order.
1. Cc1ccc(C(=O)N(CCC#N)Cc2ccccn2)cc1C
2. N#Cc1ccc(OCC(O)CN2CCN(c3nccs3)CC2)cc1 (stereo unspecified)
3. Cc1cnc(C(=O)N2CCCC(c3nccn3Cc3cscn3)C2)cn1 (stereo unspecified)

[3.78, 5.95, -5.95]

====

- subject-of-test: Arginase-2, mitochondrial (Homo sapiens)
- Sequence (whole entry): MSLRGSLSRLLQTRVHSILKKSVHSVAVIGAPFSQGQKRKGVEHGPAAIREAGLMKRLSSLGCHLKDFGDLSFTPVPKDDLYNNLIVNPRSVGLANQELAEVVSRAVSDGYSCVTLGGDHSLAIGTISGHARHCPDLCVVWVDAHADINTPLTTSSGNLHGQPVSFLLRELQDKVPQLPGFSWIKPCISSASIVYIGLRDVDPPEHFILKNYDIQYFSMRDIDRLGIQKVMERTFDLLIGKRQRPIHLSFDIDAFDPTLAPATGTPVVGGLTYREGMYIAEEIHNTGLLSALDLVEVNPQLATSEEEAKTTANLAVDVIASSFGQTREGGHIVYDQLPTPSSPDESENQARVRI
- assay-protocol: in vitro enzyme assay to detect the production of urea directly proportional to the activity of Arginase II; note: in the data most compounds retested in dose-response had high values
- Format: functional
- Parameters: scale not given: direction of the effect not stated beside the values
- condition-label: 30 µM
measured-property: Percent Effect (%)
Numbers only, in %.

See these solved cases before continuing.
| compound | subject-of-test | measured-property | units | recorded-measurement |
| --- | --- | --- | --- | --- |
| CN(Cc1ccncc1)C1CC2(CCN(Cc3ccccn3)CC2)C1 | Arginase-2, mitochondrial (Homo sapiens) | Percent Effect | % | 5.95 |
| CN(C)C(=O)CN1CCCC(c2cncc(-c3cccc(Cl)c3)n2)C1 (stereo unspecified) | Arginase-2, mitochondrial (Homo sapiens) | Percent Effect | % | 1.62 |
| CCn1c(NCc2ccccc2)nc2c(C)nn(C)c2c1=O | Arginase-2, mitochondrial (Homo sapiens) | Percent Effect | % | 8.11 |
| c1ccc(OC2COC3(CCN(CC4CC4)CC3)C2)nc1 (stereo unspecified) | Arginase-2, mitochondrial (Homo sapiens) | Percent Effect | % | -16.8 |
| CN(Cc1ccco1)[C@@H]1CN(Cc2ccc(F)cc2)[C@@H]2CCCO[C@H]12 | Arginase-2, mitochondrial (Homo sapiens) | Percent Effect | % | 2.7 |

Proceed to the following item.
Give me measured Percent Effect, please, for this compound: CCc1nc(C)c(C(=O)NCC2COc3cc(OC)ccc3C2)o1 (stereo unspecified)
5.95

====

- subject-of-test: Sialic acid-binding Ig-like lectin 9 (Homo sapiens)
- assay-protocol: Hs-Siglec9 ALPHAscreen SOP 20170721
- Design: scale not given: direction of the effect not stated beside the values
- condition-label: 10 µM
Kindly state Percent Effect for each of the entries shown.
Give bare numbers, in %.

| molecule | units | Percent Effect |
| --- | --- | --- |
| CC(=O)N1N=C(c2ccccc2)OC1C(=O)NCCc1cccc(Cl)c1 (stereo unspecified) | % | -6.99 |
| CNC(=O)[C@@H]1C[C@H]2CN(Cc3nccs3)C[C@H]2N1C | % | -2.68 |
| CCS(=O)(=O)c1ncc(CN(C)Cc2ccccn2)n1CCOC | % | 13.7 |
| O=C(N1CCCC1)N1CCC2(CCCN(CCOc3ccccc3)C2)C1 (stereo unspecified) | % | -3.35 |
| Cc1noc(Cl)c1CCC(=O)N1CCc2sccc2C1 | % | 4.18 |

Consider the additional molecule presented here.
Could you please provide reported Percent Effect for NC(=O)C1(CCCc2cccnc2)CCCN(c2ncccn2)C1 (stereo unspecified) ? Thanks!
3.57

====

So I've got a bunch of compounds here, and I need their Percent Effect values.
- subject-of-test: AMP-activated protein kinase, AMPK (Homo sapiens) (UniProt P54646+O43741+P54619+Q9UGJ0+Q9Y478+Q13131+Q9UGI9)
- assay-protocol: AMP-dependent Kinase enzyme assay. An in vitro enzyme assay that detects ADP turnover that is directly proportional to AMPK activity. This uses naive AMPK that is activated during the assay with MK-8722
- Format: functional
- Design: scale not given: direction of the effect not stated beside the values
- condition-label: 30 µM
Numbers only, in %.

| compound | Percent Effect / % |
| --- | --- |
| Cc1ccccc1-n1ccnc1S(=O)(=O)Cc1nsc(N(C)C)n1 | -1.55 |

Please report Percent Effect for every entry that follows.
1. Cc1c(NC(=O)NC(C)CCO)cccc1OC1CCCC1 (stereo unspecified)
2. Cc1cc(C)n2cc(CN3CCC(N4CCN(C)C4=O)CC3)nc2n1

[-7.69, 5.03]

Dear colleague, could you please provide Percent Effect for the compounds listed below?
1. CCC(Nc1ccc(CCN2CCOCC2)cc1)C(N)=O (stereo unspecified)
2. Cc1ccc(N(CCC#N)C(=O)CCc2cscn2)cc1C
3. CN(Cc1cccc(-n2cccn2)c1)Cc1c[nH]cn1

[-3.46, -7.79, -6.63]

Origin of values: ChEMBL document CHEMBL3988442
